Recorded pIC50, one value per entry.
- assay target: human ALK2 R206H (Homo sapiens, UniProt Q04771, R206H)
- Construct: expressed in transfected cells; host or cells: HEK293 (ATCC CRL1573), lentivirus transduction, blasticidin selection
- method notes: Cell-based ALK2-R206H cell activity assay (Smad1-Ser463/Ser465 phosphorylation by AlphaLISA in HEK293-ALK2-R206H cells)
- assay context: read-out: Cell Line (Cell Assay IC50)
pIC50: −log10 of the molar value.

>>> value_reported("CCOC(=O)N1CCN(c2ccnn3cc(-c4ccc([C@]5(C)CN(C(C)C)CCN5)cc4)cc23)CC1")
"> 7.00"
>>> value_reported("N#CC1CN(C(=O)N2CCN(c3ccnn4cc(-c5ccc(OC6CCCNC6)cc5)cc34)CC2)C1 (stereo not drawn)")
"6.30 to 7.00"

Lab note: COC1(c2ccc(-c3cc4c(N5CCN(C(=O)NC(C)C)CC5)ccnn4c3)nc2)CCNCC1 gave pIC50 of 6.30 to 7.00

The recorded pIC50 for entry COC1(c2ccc(-c3cc4c(N5CCN(C(=O)C6CC6)CC5)ccnn4c3)c(F)c2)CCN(C(C)C)CC1 equals > 7.00

Noted for O=C(C1CC1)N1CCN(c2ccnn3cc(-c4ccc(N5CCN(C6COC6)CC5)cc4)cc23)CC1 : its pIC50 reads < 6.30

----------
This listing pairs molecules with measured IC50.
- assay target: human ALK2 R206H (Homo sapiens, UniProt Q04771, R206H)
- Construct: expressed in transfected cells; host or cells: HEK293 (ATCC CRL1573), lentivirus transduction, blasticidin selection
- method notes: Cell-based ALK2-R206H cell activity assay (Smad1-Ser463/Ser465 phosphorylation by AlphaLISA in HEK293-ALK2-R206H cells)
- assay context: read-out: Cell Line (Cell Assay IC50)

Before answering, review these 3 worked examples.
>>> value_reported("CC1(c2ccc(-c3cc4c(N5CCN(C(=O)C6CC6)CC5)ccnn4c3)nc2)CCCN1 (stereo not shown) [Compound 463]")
"< 100 nM"
>>> value_reported("N[C@@H](CO)c1ccc(-c2cc3c(N4CCN(C(=O)C5CC5)CC4)ccnn3c2)cc1 [Compound 753]")
"< 100 nM"
>>> value_reported("CCN1CCN(CCOc2ccc(-c3cc4c(N5CCN(C(=O)C6CC6)CC5)ccnn4c3)cc2)CC1 [Compound 390]")
"100 to 500 nM"

We next turn to a different molecule, shown below.
Given item CC(C)NC(=O)N1CCN(c2ccnn3cc(-c4ccc([C@@]5(C)CN(C(C)C)CCN5C)cc4)cc23)CC1 [Compound 672] , the value recorded as its IC50 is < 100 nM

----------
Measured IC50 accompanies every entry in the list below.
- assay target: ALK2 R206H (GST-tagged mutant ALK2) (Homo sapiens, UniProt Q04771, R206H)
- Construct: purchased Carna Bioscience or ThermoFisher 09-148 or PV6232
- Sequence (Q04771 21-509 R206H): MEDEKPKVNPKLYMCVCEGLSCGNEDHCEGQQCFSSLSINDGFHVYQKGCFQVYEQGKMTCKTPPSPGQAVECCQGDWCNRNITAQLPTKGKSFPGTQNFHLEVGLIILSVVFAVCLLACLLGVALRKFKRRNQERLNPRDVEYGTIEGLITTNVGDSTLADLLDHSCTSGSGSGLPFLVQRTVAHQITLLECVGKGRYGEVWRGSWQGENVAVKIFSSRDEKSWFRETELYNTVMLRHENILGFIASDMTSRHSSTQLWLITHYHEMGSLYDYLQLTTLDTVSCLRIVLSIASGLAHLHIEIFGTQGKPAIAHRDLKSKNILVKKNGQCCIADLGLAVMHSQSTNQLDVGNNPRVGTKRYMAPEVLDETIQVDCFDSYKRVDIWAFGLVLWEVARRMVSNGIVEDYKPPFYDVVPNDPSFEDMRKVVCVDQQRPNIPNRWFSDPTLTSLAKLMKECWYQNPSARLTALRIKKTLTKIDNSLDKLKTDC
- method notes: ALK binding assay (LANTHASCREEN TR-FRET competitive binding, displacement of Kinase Tracer 178)
- assay context: ALK2 R206H, LANTHASCREEN TR-FRET competitive binding; read-out: Binding Assay (IC50)
- Procedure: Binding assays were conducted using the LANTHASCREEN® technology (ThermoFisher Scientific). LANTHASCREEN® is a competitive binding, displacement assay where the assumed steady state occupancy of the binding site is measured using a time-resolved, fluorescence energy transfer (TR-FRET) readout between a fluorescent tracer and Europium (Eu)-tagged antibody specific for the kinase or expression tag (e.g. GST) of interest. […]

Sample answers from the record:
>>> value_reported("CC(C)N1CC[C@H](O)[C@@H](c2ccc(-c3cc4c(N5CCN(C(=O)OC6COC6)CC5)ccnn4c3)cc2)C1")
"< 10 nM"
>>> value_reported("CCNC(=O)N1CCN(c2ccnn3cc(-c4ccc(C5(OC)CCCN(C(C)C)C5)cc4)cc23)CC1 (stereo not drawn)")
"< 10 nM"
>>> value_reported("O=C(C1CC1)N1CCN(c2ccnn3cc(-c4ccc([C@]5(F)CCCNC5)cc4)cc23)CC1")
"< 10 nM"
>>> value_reported("CCNC(=O)N1CCN(c2ccnn3cc(-c4ccc(C5(OCC)CCN(C(C)C)CC5)cc4)cc23)CC1")
"< 10 nM"
>>> value_reported("COC1(c2ccc(-c3cc4c(N5CCN(C(=O)C6CC6)[C@H](C)C5)ccnn4c3)cc2)CCN(C(C)C)CC1")
"< 10 nM"

The measured IC50 associated with O=C(OC1COC1)N1CCN(c2ccnn3cc(-c4ccc([C@H]5CCCN5)cn4)cc23)CC1 reads < 10 nM

Query CCOC1(c2ccc(-c3cc4c(N5CCN(C(=O)O[C@@H]6CCOC6)CC5)ccnn4c3)nc2)CCN(C(C)C)CC1 yields IC50 of < 10 nM

----------
- assay target: human ALK2 R206H (Homo sapiens, UniProt Q04771, R206H)
- Construct: expressed in transfected cells; host or cells: HEK293 (ATCC CRL1573), lentivirus transduction, blasticidin selection
- method notes: Cell-based ALK2-R206H cell activity assay (Smad1-Ser463/Ser465 phosphorylation by AlphaLISA in HEK293-ALK2-R206H cells)
- assay context: read-out: Cell Line (Cell Assay IC50)
Known IC50 of a selection of compounds

Consider the worked cases shown below.
>>> value_reported("CC(C)N1CC(c2ccc(-c3cc4c(N5CCN(C(=O)[C@H]6CC[C@H](C#N)CC6)CC5)ccnn4c3)cc2)C1")
"< 100 nM"
>>> value_reported("CC(C)N1CC[C@@H](OC(F)F)[C@H](c2ccc(-c3cc4c(N5CCN(C(=O)OC6COC6)CC5)ccnn4c3)cc2)C1")
"< 100 nM"
>>> value_reported("CC(C)N1CCC(c2ccc(-c3cc4c(N5CCN(C(=O)OC6CC6)CC5)ccnn4c3)cc2)CC1")
"< 100 nM"
>>> value_reported("CCOC(=O)N1CCN(c2ccnn3cc(-c4ccc(C5CCN(C(C)C)CC5)cc4)cc23)CC1")
"< 100 nM"
>>> value_reported("CCNC(=O)N1CCN(c2ccnn3cc(-c4ccc([C@H]5CCN(C(C)C)C5)cn4)cc23)CC1")
"< 100 nM"
>>> value_reported("O=C(C1CC1)N1CCN(c2ccnn3cc(-c4ccc(N5CCN(CC(F)F)CC5)cc4)cc23)CC1")
"> 500 nM"
>>> value_reported("CC(C)N1CCN[C@](C)(c2ccc(-c3cc4c(N5CCN(C(=O)C6CC6)CC5)ccnn4c3)nc2)C1")
"100 to 500 nM"
>>> value_reported("C[C@@]1(c2ccc(-c3cc4c(N5CCN(C(=O)C6CC6)CC5)ccnn4c3)cc2)CCCN1")
"< 100 nM"
>>> value_reported("COCCOC(=O)N1CCN(c2ccnn3cc(-c4ccc(C5CCN(C(C)C)CC5)cc4)cc23)CC1")
"100 to 500 nM"
>>> value_reported("CCOC(=O)N1CCN(c2ccnn3cc(-c4ccc(C5CCN(CC)CC5)cc4)cc23)CC1")
"< 100 nM"

Noted IC50 for O=C(C1CC1)N1CCN(c2ccnn3cc(-c4ccc(O[C@H]5CCCNC5)cc4)cc23)CC1 , tested on human ALK2 R206H (Homo sapiens, UniProt Q04771, R206H): < 100 nM

Known value: human ALK2 R206H (Homo sapiens, UniProt Q04771, R206H) IC50 of the compound O=C(OC1COC1)N1CCN(c2ccnn3cc(-c4ccc([C@@H]5CCCN5)cn4)cc23)CC1 equals < 100 nM

// IC50 (human ALK2 R206H (Homo sapiens, UniProt Q04771, R206H)) for O=C(C1CC1)N1CCN(c2ccnn3cc(-c4ccc(C5CCCNC5)cc4)cc23)CC1 (centres unmarked) = 100 to 500 nM

Considering CC(C)N1CCC[C@@H](c2ccc(-c3cc4c(N5CCN(C(=O)OC6COC6)CC5)ccnn4c3)cc2F)C1 , its IC50 with human ALK2 R206H (Homo sapiens, UniProt Q04771, R206H) was recorded as < 100 nM

Item [2H]C([2H])([2H])C([2H])([2H])OC(=O)N1CCN(c2ccnn3cc(-c4ccc([C@]5(OCC)CCCNC5)cn4)cc23)CC1 ; assay system human ALK2 R206H (Homo sapiens, UniProt Q04771, R206H); IC50 reported as < 100 nM

The value of IC50 recorded for CCO[C@]1(c2ccc(-c3cc4c(N5CCN(C(=O)NC(C)C)CC5)ccnn4c3)nc2)CCCNC1 when tested on human ALK2 R206H (Homo sapiens, UniProt Q04771, R206H) reads < 100 nM

Here COC1(c2ccc(-c3cc4c(N5CCN(C(=O)[C@H]6C[C@H](C#N)C6)CC5)ccnn4c3)nc2)CCN([C@@H](C)CO)CC1 was tested on human ALK2 R206H (Homo sapiens, UniProt Q04771, R206H), and its IC50 came to < 100 nM

Result for CC(C)N1CC[C@H](OC(F)F)[C@@H](c2ccc(-c3cc4c(N5CCN(C(=O)C6CC6)CC5)ccnn4c3)cc2)C1 , tested on human ALK2 R206H (Homo sapiens, UniProt Q04771, R206H), IC50: < 100 nM

Tested on human ALK2 R206H (Homo sapiens, UniProt Q04771, R206H): CC(C)N1CCC(O)(c2ccc(-c3cc4c(N5CCN(C(=O)C6CC6)CC5)ccnn4c3)cc2)CC1 . Observed IC50: < 100 nM

COC1(c2ccc(-c3cc4c(N5CCN(C(=O)NC(C)C)CC5)ccnn4c3)cc2)CN(C(C)C)C1 on human ALK2 R206H (Homo sapiens, UniProt Q04771, R206H) gives IC50 = < 100 nM

IC50 value, target or system human ALK2 R206H (Homo sapiens, UniProt Q04771, R206H), for CCOC(=O)N1CCN(c2ccnn3cc(-c4ccc([C@]5(OC)CCCNC5)cc4)cc23)CC1 : < 100 nM

Record CC(N)(CO)c1ccc(-c2cc3c(N4CCN(C(=O)C5CC5)CC4)ccnn3c2)cc1 (centres unmarked) has human ALK2 R206H (Homo sapiens, UniProt Q04771, R206H) IC50 equal to < 100 nM

Let me check: CC(C)N1CCCC(c2ccc(-c3cc4c(N5CCN(C(=O)[C@H]6C[C@H](O)C6)CC5)ccnn4c3)cc2)C1 (some centres unmarked) , system human ALK2 R206H (Homo sapiens, UniProt Q04771, R206H), measured IC50 is < 100 nM

The reported human ALK2 R206H (Homo sapiens, UniProt Q04771, R206H) IC50 of O=C(OC1COC1)N1CCN(c2ccnn3cc(-c4ccc([C@H]5CCCN5)cn4)cc23)CC1 is < 100 nM

IC50 of CCNC(=O)N1CCN(c2ccnn3cc(-c4ccc(C5CCN(C(C)C)CC5)cn4)cc23)CC1 , assay on human ALK2 R206H (Homo sapiens, UniProt Q04771, R206H), is < 100 nM
